- Tested on: S. enterica typhimurium WT
- assayComment: growth AUC normalised to DMSO control (median) (fraction of control); higher = less growth inhibition, active = hit call of the paper;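 also: active when median AUC fell below 0.1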
- runParameters: 20 µM
Structures can show the parent of a compound that is named as a salt.
Each entry below carries its recorded growth AUC normalised to DMSO control.
quantity: growth AUC normalised to DMSO control

compound: COc1ccc2c(c1)c(CC(=O)O)c(C)n2C(=O)c1ccc(Cl)cc1 [Indomethacin]
systemUnderTest: S. enterica typhimurium WT
quantitativeReadout: 1.01
--
compound: CC1(C)S[C@@H]2[C@H](NC(=O)C(c3ccccc3)S(=O)(=O)O)C(=O)N2[C@H]1C(=O)O (some centres undefined) [Sulbenicillin sodium salt]
systemUnderTest: S. enterica typhimurium WT
quantitativeReadout: 0.116
--
compound: CN(C)c1nc(N(C)C)nc(N(C)C)n1 [Altretamine]
systemUnderTest: S. enterica typhimurium WT
quantitativeReadout: 1
--
compound: CC(C)Cc1ccc(C(C)C(=O)OCc2ccccn2)cc1 (centres undefined) [Ibuprofen Piconol]
systemUnderTest: S. enterica typhimurium WT
quantitativeReadout: 0.999

----------
- System: S. enterica typhimurium WT
- assayComment: growth AUC normalised to DMSO control (median) (fraction of control); higher = less growth inhibition, active = hit call of the paper
- runParameters: 20 µM
Counter-ions that a name gives are not always drawn.
Each entry below carries its recorded growth AUC normalised to DMSO control.

compound: COC(=O)[C@H](c1ccccc1Cl)N1CCc2sccc2C1 [Clopidogrel]
growth AUC normalised to DMSO control: 1 (inactive)
//
compound: COc1ccccc1O [Guaiacol]
growth AUC normalised to DMSO control: 0.997 (inactive)
//
compound: CO[C@H]1/C=C/O[C@@]2(C)Oc3c(C)c(O)c4c(O)c(c(/C=N/N5CCN(C)CC5)c(O)c4c3C2=O)NC(=O)/C(C)=C\C=C\[C@H](C)[C@H](O)[C@@H](C)[C@@H](O)[C@@H](C)[C@H](OC(C)=O)[C@@H]1C [Rifampicin]
growth AUC normalised to DMSO control: 0.523 (inactive)
//
compound: CO[C@@H]1[C@@H](O[C@@H]2O[C@H](C)[C@@H](O[C@H]3C[C@@](C)(O)[C@@H](OC(=O)CC(C)C)[C@H](C)O3)[C@H](N(C)C)[C@H]2O)[C@@H](CC=O)C[C@@H](C)[C@@H](O)/C=C/C=C/C[C@@H](C)OC(=O)C[C@H]1OC(C)=O [Josamycin]
growth AUC normalised to DMSO control: 0.967 (inactive)
//
compound: CCN(CC)CCOC(=O)C1(c2ccc([N+](=O)[O-])cc2)CCCC1 [Nitrocaramiphen hydrochloride]
growth AUC normalised to DMSO control: 1 (inactive)
//
compound: CC(C)COC(=O)OCN1C(=O)CN(CCN2CC(=O)N(COC(=O)OCC(C)C)C(=O)C2)CC1=O [Sobuzoxane]
growth AUC normalised to DMSO control: 0.998 (inactive)

----------
- System: P. vulgatus WT
- assayComment: growth AUC normalised to DMSO control (median) (fraction of control); higher = less growth inhibition, active = hit call of the paper
- runParameters: 20 µM
Where a name gives a salt, the structure may show the parent alone.
Entry flag: satisfied if growth AUC normalised to DMSO control reaches 1; not satisfied if it does not.

compound: O=C1c2c(O)cccc2Cc2cccc(O)c21
systemUnderTest: P. vulgatus WT
label: not satisfied
//
compound: CN1CCN(C2=Nc3ccccc3Oc3ccc(Cl)cc32)CC1 [Loxapine succinate]
systemUnderTest: P. vulgatus WT
label: not satisfied
//
compound: N=C(N)Nc1ccc(C(=O)Oc2ccc3cc(C(=N)N)ccc3c2)cc1 [Nafamostat Mesylate]
systemUnderTest: P. vulgatus WT
label: satisfied
//
compound: Cc1cccc(C)c1NC(=O)CC12CCCN1CCC2 [Pilsicainide Hydrochloride]
systemUnderTest: P. vulgatus WT
label: satisfied
//
compound: CC1(C)S[C@@H]2[C@H](NC(=O)[C@H](N)c3ccccc3)C(=O)N2[C@H]1C(=O)OC1OC(=O)c2ccccc21 (some centres not stated) [Talampicillin hydrochloride]
systemUnderTest: P. vulgatus WT
label: not satisfied
//
compound: Clc1ccc(C(Cn2ccnc2)OCc2ccsc2Cl)c(Cl)c1 (configuration not stated)
systemUnderTest: P. vulgatus WT
label: not satisfied
//
compound: COC(=O)CCc1ccc(OCC(O)CNC(C)C)cc1 (configuration not stated) [Esmolol hydrochloride]
systemUnderTest: P. vulgatus WT
label: satisfied
//
compound: CC(C)CC(=O)N[C@H](C(=O)N[C@H](C(=O)N[C@@H](CC(C)C)[C@@H](O)CC(=O)N[C@@H](C)C(=O)N[C@@H](CC(C)C)[C@@H](O)CC(=O)O)C(C)C)C(C)C
systemUnderTest: P. vulgatus WT
label: satisfied
//
compound: c1ccc(CC2=NCCN2)cc1 [Tolazoline hydrochloride]
systemUnderTest: P. vulgatus WT
label: satisfied
//
compound: CC(=O)OCC(CCn1cnc2cnc(N)nc21)COC(C)=O
systemUnderTest: P. vulgatus WT
label: satisfied
//
compound: O=C1[C@H](CC[C@H](O)c2ccc(F)cc2)[C@@H](c2ccc(O)cc2)N1c1ccc(F)cc1
systemUnderTest: P. vulgatus WT
label: not satisfied

----------
- System: P. vulgatus WT
- assayComment: growth AUC normalised to DMSO control (median) (fraction of control); higher = less growth inhibition, active = hit call of the paper;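 active = normalised median growth AUC below 0.1 of DMSO control; inactive = AUC 0.1 or higher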
- runParameters: 20 µM
Structures can show the parent of a compound that is named as a salt.
Outcome codes: active, inactive

compound: O=C(O)c1ccccc1Nc1cc(Cl)ccc1C(=O)O [Lobenzarit disodium]
systemUnderTest: P. vulgatus WT
label: inactive
//
compound: CCCCN(CCCC)CCCOC(=O)c1ccc(N)cc1 [Butacaine]
systemUnderTest: P. vulgatus WT
label: inactive
//
compound: NC[C@H]1CC[C@H](C(=O)O)CC1 [Tranexamic acid]
systemUnderTest: P. vulgatus WT
label: inactive
//
compound: OC(c1cc(C(F)(F)F)nc2c(C(F)(F)F)cccc12)C1CCCCN1 (stereo unspecified) [Mefloquine hydrochloride]
systemUnderTest: P. vulgatus WT
label: inactive
//
compound: C=CCSCC1Nc2cc(Cl)c(S(N)(=O)=O)cc2S(=O)(=O)N1 (stereo unspecified) [Althiazide]
systemUnderTest: P. vulgatus WT
label: inactive
//
compound: N=C(N=C(N)N)N1CCOCC1 [Moroxidine hydrochloride]
systemUnderTest: P. vulgatus WT
label: inactive
//
compound: CCOC(=O)C1=C[C@@H](OC(CC)CC)[C@H](NC(C)=O)[C@@H](N)C1 [Oseltamivir phosphate]
systemUnderTest: P. vulgatus WT
label: inactive
//
compound: CC(C)[C@H]1CC[C@H](C(=O)N[C@H](Cc2ccccc2)C(=O)O)CC1 [Nateglinide]
systemUnderTest: P. vulgatus WT
label: inactive
//
compound: CC1=C(C)C(=O)C(C(CCCCCC(=O)O)c2ccccc2)=C(C)C1=O (stereo unspecified) [Seratrodast]
systemUnderTest: P. vulgatus WT
label: inactive
//
compound: CCC(=O)O[C@@H](O[P@](=O)(CCCCc1ccccc1)CC(=O)N1C[C@H](C2CCCCC2)C[C@H]1C(=O)O)C(C)C [Fosinopril]
systemUnderTest: P. vulgatus WT
label: inactive
//
compound: CC(C)(C)NCC(O)c1cc(O)cc(O)c1 (stereo unspecified) [Terbutaline hemisulfate]
systemUnderTest: P. vulgatus WT
label: inactive
//
compound: CC(=O)O[C@H]1C(=O)[C@@]2(C)[C@H]([C@H](OC(=O)c3ccccc3)[C@]3(O)C[C@H](OC(=O)[C@H](O)[C@@H](NC(=O)c4ccccc4)c4ccccc4)C(C)=C1C3(C)C)[C@]1(OC(C)=O)CO[C@@H]1C[C@@H]2O [Paclitaxel]
systemUnderTest: P. vulgatus WT
label: inactive
//
compound: C[C@]12CCC(=O)C=C1CC[C@@H]1[C@@H]2C(=O)C[C@@]2(C)[C@H]1CC[C@]2(O)C(=O)CO [Cortisone]
systemUnderTest: P. vulgatus WT
label: inactive
//
compound: O=C(NC(Cc1cc(=O)[nH]c2ccccc12)C(=O)O)c1ccc(Cl)cc1 (stereo unspecified) [Rebamipide]
systemUnderTest: P. vulgatus WT
label: inactive
//
compound: COc1ccc(CN2CCN(C(c3ccc(F)cc3)c3ccc(F)cc3)CC2)c(OC)c1OC [Lomerizine dihydrochloride]
systemUnderTest: P. vulgatus WT
label: inactive
//
compound: O=C(O[C@@H]1C[C@@H]2C[C@H]3C[C@H](C1)N2CC3=O)c1c[nH]c2ccccc12 [Dolasetron mesilate]
systemUnderTest: P. vulgatus WT
label: inactive
//
compound: Cc1nnc(SCC2=C(C(=O)O)N3C(=O)[C@@H](NC(=O)Cn4cnnn4)[C@H]3SC2)s1 [Cefazolin sodium salt]
systemUnderTest: P. vulgatus WT
label: active
//
compound: Cc1cccc(C)c1NC(=O)C(C)N (stereo unspecified) [Tocainide hydrochloride]
systemUnderTest: P. vulgatus WT
label: inactive
//
compound: CO[C@H]1/C=C/O[C@@]2(C)Oc3c(C)c(O)c4c(O)c(c(/C=N/N5CCN(C)CC5)c(O)c4c3C2=O)NC(=O)/C(C)=C\C=C\[C@H](C)[C@H](O)[C@@H](C)[C@@H](O)[C@@H](C)[C@H](OC(C)=O)[C@@H]1C [Rifampicin]
systemUnderTest: P. vulgatus WT
label: active
//
compound: CC(C)(C)NC(=O)[C@H]1CC[C@H]2[C@@H]3CC[C@H]4NC(=O)C=C[C@]4(C)[C@H]3CC[C@]12C [Finasteride]
systemUnderTest: P. vulgatus WT
label: inactive
//
compound: COc1nc(N)nc2c1ncn2[C@@H]1O[C@H](CO)[C@@H](O)[C@@H]1O [Nelarabine]
systemUnderTest: P. vulgatus WT
label: inactive
//
compound: C=C[C@H]1CN2CC[C@H]1C[C@@H]2[C@@H](O)c1ccnc2ccc(OC)cc12 [Quinidine hydrochloride monohydrate]
systemUnderTest: P. vulgatus WT
label: inactive
//
compound: CCn1cc(C(=O)O)c(=O)c2cnc(N3CCNCC3)nc21 [Pipemidic acid]
systemUnderTest: P. vulgatus WT
label: inactive
//
compound: CCOC(=O)O[C@]1(C(=O)COC(=O)CC)CC[C@H]2[C@@H]3CCC4=CC(=O)C=C[C@]4(C)[C@H]3[C@@H](O)C[C@@]21C [Prednicarbate]
systemUnderTest: P. vulgatus WT
label: inactive
//
compound: CCc1cccc2c3c([nH]c12)C(CC)(CC(=O)O)OCC3 (stereo unspecified) [Etodolac]
systemUnderTest: P. vulgatus WT
label: inactive
//
compound: O=C(NCC(O)CO)c1c(I)c(C(=O)NCC(O)CO)c(I)c(N(CCO)C(=O)CO)c1I (stereo unspecified) [Ioversol]
systemUnderTest: P. vulgatus WT
label: inactive
//
compound: COc1cc(Nc2c(C#N)cnc3cc(OCCCN4CCN(C)CC4)c(OC)cc23)c(Cl)cc1Cl [Bosutinib]
systemUnderTest: P. vulgatus WT
label: inactive
//
compound: O=C1c2ccccc2S(=O)(=O)N1CCCCN1CCN(c2ncccn2)CC1 [Ipsapirone]
systemUnderTest: P. vulgatus WT
label: inactive
//
compound: CCOC(=O)C1=C[C@]2(CC)CCCN3CCc4c(n1c1ccccc41)[C@@H]32 [Vinpocetine]
systemUnderTest: P. vulgatus WT
label: inactive
//
compound: NC(CO)C(=O)NNCc1ccc(O)c(O)c1O (stereo unspecified) [Benserazide hydrochloride]
systemUnderTest: P. vulgatus WT
label: inactive
//
compound: Cc1cccc(Nc2ccccc2C(=O)O)c1C [Mefenamic acid]
systemUnderTest: P. vulgatus WT
label: inactive

Hey, just so you know, these numbers are from the supplement of paper PMC12350171.
